Can you tell me cAMP antagonism % inhib for the items I'm about to list?
Target: T1, human GIP receptor (human, UniProt P48546 22-466)
T1 sequence (looked up): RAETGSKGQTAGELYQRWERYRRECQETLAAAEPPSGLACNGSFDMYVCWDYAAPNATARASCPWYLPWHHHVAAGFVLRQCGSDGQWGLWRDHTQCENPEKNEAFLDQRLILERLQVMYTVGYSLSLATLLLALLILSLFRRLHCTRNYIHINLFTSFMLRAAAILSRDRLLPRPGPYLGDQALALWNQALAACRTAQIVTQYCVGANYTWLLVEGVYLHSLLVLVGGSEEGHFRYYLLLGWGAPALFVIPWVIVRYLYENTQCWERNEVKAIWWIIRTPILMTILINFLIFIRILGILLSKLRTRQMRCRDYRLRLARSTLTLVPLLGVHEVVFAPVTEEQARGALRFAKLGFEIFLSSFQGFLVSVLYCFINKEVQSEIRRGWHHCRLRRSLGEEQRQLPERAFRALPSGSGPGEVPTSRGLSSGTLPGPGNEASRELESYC
Test: cell-based or functional assay
*1 amine or outer side, *2 acyl side, *3 side chain or, on linkers, in order; H or OH if unused. Where no end group is shown, it is not given here. Side-chain parts run from the residue outwards. [ ]: non-standard residue; d: D form. The star is where a group is joined. C18 diacid = O=C(O)CCCCCCCCCCCCCCCCC(=O)*; C16 diacid = O=C(O)CCCCCCCCCCCCCCC(=O)*; γGlu = O=C(O)[C@H](CCC(=O)[*:2])N[*:1]; Glutaryl = O=C(CCCC(=O)[*:2])[*:1]; Nle = CCCC[C@H](N)C(=O)O; AEEA = NCCOCCOCC(=O)O; Aib = CC(C)(N)C(=O)O
Answers are plain numbers, in %.

binder: EGTFISDYSIAMDKIK([AEEA-AEEA-γGlu-C18 diacid])QQDFVNWLLAQKGPSSGAPPPS [AT433]
unit.abbrev: %
cAMP antagonism % inhib: 89

binder: Glutaryl-GTFISDYSIA[Nle]DKIK(C16 diacid)QQDFVEWLLAQKPSSGAPPPS-OH [AT700]
unit.abbrev: %
cAMP antagonism % inhib: 89

Okay, next one:
query: Give its cAMP antagonism % inhib value. Item: EGTFISDYSI[Aib][Nle]DKIK(C16 diacid)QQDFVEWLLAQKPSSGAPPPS-OH [AT667]
result: 86
